Just for reference, patent US8017767B2 is where these values come from.

# experiment: Accelerated stability test (50° C.) with pH stability test of sucralose sample solution
# Type: physicochemical
# condition_info: 50° C., WHIRLPAK polyethylene bags; failure = pH drop ≧1.0; Example 1, sodium acetate in mother liquor varied
measured_parameter: Days to pH Failure (Days)

INSERT INTO assay_data (compound, unit_of_measurement, assay_result) VALUES
  ('OC[C@H]1O[C@H](O[C@]2(CCl)O[C@H](CCl)[C@@H](O)[C@@H]2O)[C@H](O)[C@@H](O)[C@H]1Cl [Sample 10]', 'Days', 5),
  ('OC[C@H]1O[C@H](O[C@]2(CCl)O[C@H](CCl)[C@@H](O)[C@@H]2O)[C@H](O)[C@@H](O)[C@H]1Cl [Sample 31]', 'Days', 5),
  ('OC[C@H]1O[C@H](O[C@]2(CCl)O[C@H](CCl)[C@@H](O)[C@@H]2O)[C@H](O)[C@@H](O)[C@H]1Cl [Sample 7]', 'Days', 5),
  ('OC[C@H]1O[C@H](O[C@]2(CCl)O[C@H](CCl)[C@@H](O)[C@@H]2O)[C@H](O)[C@@H](O)[C@H]1Cl [Sample 19]', 'Days', 6),
  ('OC[C@H]1O[C@H](O[C@]2(CCl)O[C@H](CCl)[C@@H](O)[C@@H]2O)[C@H](O)[C@@H](O)[C@H]1Cl [Sample 15]', 'Days', 5),
  ('OC[C@H]1O[C@H](O[C@]2(CCl)O[C@H](CCl)[C@@H](O)[C@@H]2O)[C@H](O)[C@@H](O)[C@H]1Cl [Sample 29]', 'Days', 6);

====

# experiment: Accelerated stability test (50° C.) with pH stability test of sucralose sample solution
# Assay type: physicochemical
# condition_info: sample solution (5 g in 50 ml pH-adjusted water) at time zero; Example 1, sodium acetate in mother liquor varied
measured_parameter: Initial pH

INSERT INTO measurements (compound, measured_parameter, assay_result) VALUES
  ('OC[C@H]1O[C@H](O[C@]2(CCl)O[C@H](CCl)[C@@H](O)[C@@H]2O)[C@H](O)[C@@H](O)[C@H]1Cl [Sample 20]', 'Initial pH', 6.09),
  ('OC[C@H]1O[C@H](O[C@]2(CCl)O[C@H](CCl)[C@@H](O)[C@@H]2O)[C@H](O)[C@@H](O)[C@H]1Cl [Sample 30]', 'Initial pH', 5.95),
  ('OC[C@H]1O[C@H](O[C@]2(CCl)O[C@H](CCl)[C@@H](O)[C@@H]2O)[C@H](O)[C@@H](O)[C@H]1Cl [Sample 3]', 'Initial pH', 5.44),
  ('OC[C@H]1O[C@H](O[C@]2(CCl)O[C@H](CCl)[C@@H](O)[C@@H]2O)[C@H](O)[C@@H](O)[C@H]1Cl [Sample 26]', 'Initial pH', 6.06),
  ('OC[C@H]1O[C@H](O[C@]2(CCl)O[C@H](CCl)[C@@H](O)[C@@H]2O)[C@H](O)[C@@H](O)[C@H]1Cl [Sample 13]', 'Initial pH', 5.85),
  ('OC[C@H]1O[C@H](O[C@]2(CCl)O[C@H](CCl)[C@@H](O)[C@@H]2O)[C@H](O)[C@@H](O)[C@H]1Cl [Sample 18]', 'Initial pH', 6.00);

====

# experiment: Accelerated stability test (50° C.) with pH stability test of sucralose sample solution
# Format: physicochemical
# condition_info: sample solution (5 g in 50 ml pH-adjusted water) at time zero; Example 1, sodium acetate in mother liquor varied
measured_parameter: Initial pH

INSERT INTO measurements (compound, assay_result) VALUES
  ('OC[C@H]1O[C@H](O[C@]2(CCl)O[C@H](CCl)[C@@H](O)[C@@H]2O)[C@H](O)[C@@H](O)[C@H]1Cl [Sample 27]', 5.99),
  ('OC[C@H]1O[C@H](O[C@]2(CCl)O[C@H](CCl)[C@@H](O)[C@@H]2O)[C@H](O)[C@@H](O)[C@H]1Cl [Sample 1]', 5.72),
  ('OC[C@H]1O[C@H](O[C@]2(CCl)O[C@H](CCl)[C@@H](O)[C@@H]2O)[C@H](O)[C@@H](O)[C@H]1Cl [Sample 25]', 6.03),
  ('OC[C@H]1O[C@H](O[C@]2(CCl)O[C@H](CCl)[C@@H](O)[C@@H]2O)[C@H](O)[C@@H](O)[C@H]1Cl [Sample 15]', 6.06),
  ('OC[C@H]1O[C@H](O[C@]2(CCl)O[C@H](CCl)[C@@H](O)[C@@H]2O)[C@H](O)[C@@H](O)[C@H]1Cl [Sample 19]', 6.06),
  ('OC[C@H]1O[C@H](O[C@]2(CCl)O[C@H](CCl)[C@@H](O)[C@@H]2O)[C@H](O)[C@@H](O)[C@H]1Cl [Sample 16]', 6.20);

====

# experiment: Accelerated stability test (50° C.) with pH stability test of sucralose sample solution
# Type: physicochemical
# condition_info: sample solution (5 g in 50 ml pH-adjusted water) at time zero; Example 1, sodium acetate in mother liquor varied
measured_parameter: Initial pH

INSERT INTO assay_data (molecule, measured_parameter, assay_result) VALUES
  ('OC[C@H]1O[C@H](O[C@]2(CCl)O[C@H](CCl)[C@@H](O)[C@@H]2O)[C@H](O)[C@@H](O)[C@H]1Cl [Sample 10]', 'Initial pH', 5.90),
  ('OC[C@H]1O[C@H](O[C@]2(CCl)O[C@H](CCl)[C@@H](O)[C@@H]2O)[C@H](O)[C@@H](O)[C@H]1Cl [Sample 5]', 'Initial pH', 5.64),
  ('OC[C@H]1O[C@H](O[C@]2(CCl)O[C@H](CCl)[C@@H](O)[C@@H]2O)[C@H](O)[C@@H](O)[C@H]1Cl [Sample 6]', 'Initial pH', 5.53),
  ('OC[C@H]1O[C@H](O[C@]2(CCl)O[C@H](CCl)[C@@H](O)[C@@H]2O)[C@H](O)[C@@H](O)[C@H]1Cl [Sample 7]', 'Initial pH', 5.70),
  ('OC[C@H]1O[C@H](O[C@]2(CCl)O[C@H](CCl)[C@@H](O)[C@@H]2O)[C@H](O)[C@@H](O)[C@H]1Cl [Sample 22]', 'Initial pH', 6.08),
  ('OC[C@H]1O[C@H](O[C@]2(CCl)O[C@H](CCl)[C@@H](O)[C@@H]2O)[C@H](O)[C@@H](O)[C@H]1Cl [Sample 14]', 'Initial pH', 5.95);

====

# experiment: Accelerated stability test (50° C.) with pH stability test of sucralose sample solution
# Assay type: physicochemical
# condition_info: sample solution vs pH-adjusted water at time zero, (−) pH drop, (+) pH gain; Example 1
measured_parameter: Initial pH difference

[I] OC[C@H]1O[C@H](O[C@]2(CCl)O[C@H](CCl)[C@@H](O)[C@@H]2O)[C@H](O)[C@@H](O)[C@H]1Cl [Sample 2]
[II] OC[C@H]1O[C@H](O[C@]2(CCl)O[C@H](CCl)[C@@H](O)[C@@H]2O)[C@H](O)[C@@H](O)[C@H]1Cl [Sample 4]
[III] OC[C@H]1O[C@H](O[C@]2(CCl)O[C@H](CCl)[C@@H](O)[C@@H]2O)[C@H](O)[C@@H](O)[C@H]1Cl [Sample 30]
Inquiry: Quick favor: sort the molecules up above by Initial pH difference, largest first. List labels; respect the requested ordering.
Reply text: III, I, II

====

Recorded Initial pH difference by entry
# experiment: Accelerated stability test (50° C.) with pH stability test of sucralose sample solution
# Assay type: physicochemical
# condition_info: sample solution vs pH-adjusted water at time zero, (−) pH drop, (+) pH gain; Example 1
# Method: Label seven 6 oz. and seven 18 oz. WHIRLPAK® polyethylene bags with indelible marker for each batch being tested for stability. Accurately weigh 25 g±0.01 g of sucralose into each 6 oz. WHIRLPAK® polyethylene bag. Heat or impulse seal the 6 oz. bag to ensure air tightness. Cut off any excess polyethylene at the top of the bag above the seal. […] Place approximately 100 ml of deionized water into a 150 ml beaker. […] Record the pH reading. […]

# annotated cases, reported Initial pH difference shown
INSERT INTO measurements (molecule, measured_parameter, assay_result) VALUES
  ('OC[C@H]1O[C@H](O[C@]2(CCl)O[C@H](CCl)[C@@H](O)[C@@H]2O)[C@H](O)[C@@H](O)[C@H]1Cl [Sample 13]', 'Initial pH difference', '−0.10'),
  ('OC[C@H]1O[C@H](O[C@]2(CCl)O[C@H](CCl)[C@@H](O)[C@@H]2O)[C@H](O)[C@@H](O)[C@H]1Cl [Sample 7]', 'Initial pH difference', '−0.22'),
  ('OC[C@H]1O[C@H](O[C@]2(CCl)O[C@H](CCl)[C@@H](O)[C@@H]2O)[C@H](O)[C@@H](O)[C@H]1Cl [Sample 20]', 'Initial pH difference', '+0.08'),
  ('OC[C@H]1O[C@H](O[C@]2(CCl)O[C@H](CCl)[C@@H](O)[C@@H]2O)[C@H](O)[C@@H](O)[C@H]1Cl [Sample 29]', 'Initial pH difference', '+0.12'),
  ('OC[C@H]1O[C@H](O[C@]2(CCl)O[C@H](CCl)[C@@H](O)[C@@H]2O)[C@H](O)[C@@H](O)[C@H]1Cl [Sample 8]', 'Initial pH difference', '−0.73');

Now consider a different molecule.
Inquiry: What value of measured Initial pH difference is listed for OC[C@H]1O[C@H](O[C@]2(CCl)O[C@H](CCl)[C@@H](O)[C@@H]2O)[C@H](O)[C@@H](O)[C@H]1Cl [Sample 26] ?
Reply text: +0.10
